MEASUREMENT KIND: melting point

Nc1cc(-c2ccco2)no1	95 to 99 °C
CCC(NC(=O)OC(C)(C)C)(C(N)=O)C(C)C (centres undefined)	157 to 159 °C

Query: Entry O=C(O)c1ccc2c3c(cccc13)CC2 has what melting point?
Reply: 220 to 223 °C

Query: Follow-up entry: Clc1ccc(SC2CCNCC2)cc1
Reply: 41 to 43 °C

Query: Follow-up entry: NC(=O)Cc1ccc(N)cc1
Reply: 157 to 159 °C

Query: Follow-up entry: COc1ccc(OC)c2[nH]c(C(=O)O)cc12
Reply: 201 to 203 °C

Query: Follow-up entry: COc1cccc(-c2n[nH]cc2C=O)c1
Reply: 91 to 93 °C

Query: Follow-up entry: O=C(O)c1cnoc1-c1ccc(Cl)cc1
Reply: 205 to 207 °C

Query: Follow-up entry: ClCc1ccc(I)cc1
Reply: 49 to 51 °C

Query: Follow-up entry: Nc1cc(F)ccc1OCC1CCCO1 (centres undefined)
Reply: 87 to 89 °C

Query: Follow-up entry: CCOC(=O)C1=C(C)NC(C)=C(C(=O)O)C1c1cccc([N+](=O)[O-])c1 (centres undefined)
Reply: 199 to 201 °C

Query: Follow-up entry: CCS(=O)(=O)c1ccc(CN)cc1
Reply: 51 to 53 °C

Query: Follow-up entry: N#Cc1c(Cl)nc2sccn12
Reply: 174 to 176 °C

Query: Follow-up entry: Cc1sc(C(=O)O)cc1S(=O)(=O)Cl
Reply: 148 to 150 °C

Query: Follow-up entry: Nc1cccc(CS(=O)c2ccccc2)c1 (centres undefined)
Reply: 133 to 135 °C

Query: Follow-up entry: CC(N)c1ccc2c(c1)NC(=O)CO2 (centres undefined)
Reply: 130 to 132 °C

Query: Follow-up entry: NNC1=NC(=O)C(=O)N1
Reply: 144 to 146 °C

Query: Follow-up entry: CC(=O)NC1CCN(C(C)C)CC1
Reply: 84 to 86 °C

Query: Follow-up entry: CC(=O)c1c(O)cc(F)cc1F
Reply: 45 to 47 °C

Query: Follow-up entry: O=C1CC(C(=O)O)CC(=O)N1
Reply: 204 to 206 °C
